target: CDK4 (Homo sapiens); construct: endogenous in cells; host or cells: Calu-1; experiment: CDK4 percentage degradation in Calu-1 cells (immunoblotting); assay type: cell-based; conditions: Calu-1 cells, 200 nM, 16 hours; read-out: CDK4 Degradation (200 nM)
measured property: inhibition at 0.2 µM

Sure, the documented inhibition at 0.2 µM for COC(=O)c1nc(NC(=O)c2ccc(NCCOCCOCCOCCOCCOCCNC(=O)CN3CCN(c4ccc(Nc5ncc6c(C)c(C(C)=O)c(=O)n(C7CCCC7)c6n5)nc4)CC3)cc2C)sc1C [CPD-033] is > 80%

----------
biological target: CDK4 (Homo sapiens, UniProt P11802); construct: endogenous in cells; host or cells: Calu-1; assay: CDK4 percentage degradation in Calu-1 cells (immunoblotting); type: cell-based; details: Calu-1 cells, 10 μM, 16 hours; read-out: CDK4 Degradation (10 μM)
Sequence (P11802 2-303 limits assumed): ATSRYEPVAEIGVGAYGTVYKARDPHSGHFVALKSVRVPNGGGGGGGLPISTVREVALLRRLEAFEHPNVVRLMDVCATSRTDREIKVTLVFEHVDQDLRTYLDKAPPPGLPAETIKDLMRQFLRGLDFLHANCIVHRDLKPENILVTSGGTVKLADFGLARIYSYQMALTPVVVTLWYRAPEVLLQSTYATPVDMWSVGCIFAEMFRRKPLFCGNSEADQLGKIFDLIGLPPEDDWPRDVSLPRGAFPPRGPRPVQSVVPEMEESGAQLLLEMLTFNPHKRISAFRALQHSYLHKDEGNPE
Sequence (P24385 whole entry partner): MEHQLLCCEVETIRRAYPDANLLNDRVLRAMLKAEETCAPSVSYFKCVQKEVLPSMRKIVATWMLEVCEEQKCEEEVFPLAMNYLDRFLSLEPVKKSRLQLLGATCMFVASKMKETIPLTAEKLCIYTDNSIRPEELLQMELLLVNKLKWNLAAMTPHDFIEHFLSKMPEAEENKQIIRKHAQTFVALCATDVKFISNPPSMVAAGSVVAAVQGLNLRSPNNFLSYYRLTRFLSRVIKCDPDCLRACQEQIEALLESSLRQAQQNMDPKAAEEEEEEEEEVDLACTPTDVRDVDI
Sequence (Q16531 2-1140 limits assumed, further chain): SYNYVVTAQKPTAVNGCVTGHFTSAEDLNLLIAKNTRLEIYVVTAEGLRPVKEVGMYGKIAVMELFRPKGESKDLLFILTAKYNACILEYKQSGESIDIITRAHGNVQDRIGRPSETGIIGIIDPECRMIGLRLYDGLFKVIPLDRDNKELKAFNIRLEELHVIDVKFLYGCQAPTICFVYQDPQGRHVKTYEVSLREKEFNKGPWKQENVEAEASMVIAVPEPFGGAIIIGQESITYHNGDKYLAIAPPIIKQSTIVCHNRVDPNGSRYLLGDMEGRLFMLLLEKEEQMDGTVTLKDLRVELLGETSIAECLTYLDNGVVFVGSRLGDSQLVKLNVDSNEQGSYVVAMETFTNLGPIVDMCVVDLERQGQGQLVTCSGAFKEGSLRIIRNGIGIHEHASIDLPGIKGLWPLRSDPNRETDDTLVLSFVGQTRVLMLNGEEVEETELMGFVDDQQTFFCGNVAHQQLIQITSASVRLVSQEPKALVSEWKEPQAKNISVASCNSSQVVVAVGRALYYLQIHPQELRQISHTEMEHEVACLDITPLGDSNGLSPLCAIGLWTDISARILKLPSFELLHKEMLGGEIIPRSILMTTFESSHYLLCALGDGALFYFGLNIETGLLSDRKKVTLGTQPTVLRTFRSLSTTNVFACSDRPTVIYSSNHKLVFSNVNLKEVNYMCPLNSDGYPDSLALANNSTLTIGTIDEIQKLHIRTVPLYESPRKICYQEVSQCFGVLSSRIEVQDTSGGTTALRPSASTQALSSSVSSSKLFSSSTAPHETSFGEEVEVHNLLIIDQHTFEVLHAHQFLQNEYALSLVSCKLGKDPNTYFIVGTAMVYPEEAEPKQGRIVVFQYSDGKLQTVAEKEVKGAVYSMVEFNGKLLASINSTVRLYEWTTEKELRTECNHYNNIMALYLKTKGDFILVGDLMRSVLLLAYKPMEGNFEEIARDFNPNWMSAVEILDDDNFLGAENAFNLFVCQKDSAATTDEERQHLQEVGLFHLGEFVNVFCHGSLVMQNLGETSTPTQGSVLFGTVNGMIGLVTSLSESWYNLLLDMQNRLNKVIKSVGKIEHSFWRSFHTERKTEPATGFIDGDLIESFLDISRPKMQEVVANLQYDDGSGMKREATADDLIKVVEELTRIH
measured property: inhibition at 10 µM

Please review the following examples before continuing.
Cc1nc(NC(=O)c2ccccc2NC(=O)CCCNC(=O)CN2CCN(Cc3ccc(Nc4ncc(F)c(-c5cc(F)c6nc(C)n(C(C)C)c6c5)n4)nc3)CC2)sc1C [CPD-274]; < 30%
Cc1nc(NC(=O)c2ccccc2NC(=O)CCOCCOCCOCCOCCNC(=O)CN2CCN(c3ccc(Nc4ncc(F)c(-c5cc(F)c6nc(C)n(C(C)C)c6c5)n4)nc3)CC2)sc1C [CPD-311]; 30 to 50%

Form field, inhibition at 10 µM with CDK4 (Homo sapiens, UniProt P11802), item Cc1nc(NC(=O)c2ccccc2NC(=O)CCOCCOCCOCCOCCOCCOCCNC(=O)CN2CCN(Cc3ccc(Nc4ncc(F)c(-c5cc(F)c6nc(C)n(C(C)C)c6c5)n4)nc3)CC2)sc1C [CPD-285] : < 30%
